Test system: Mus musculus
Assay: Percent increase in life span at dose 5 mg/kg/day in 10 mice implanted with P388 leukemia cell line
Assay type: functional

compound.structure.string	ILS at 5 mg/kg/day
CC[C@]1(O)C[C@@H]2C[N@](CCc3c([nH]c4ccccc34)[C@@](C(=O)OC)(c3cc4c(cc3OC)N(C)[C@@]3(C)[C@@](O)(C(=O)N[C@@H](CC(C)C)C(N)=O)[C@H](O)[C@]5(CC)C=CCN6CC[C@]43[C@@H]65)C2)C1	1.7%
CC[C@H](C)[C@H](NC(=O)[C@@]1(O)[C@H](O)[C@]2(CC)C=CCN3CC[C@@]4(c5cc([C@@]6(C(=O)OC)C[C@H]7C[N@](CCc8c6[nH]c6ccccc86)C[C@](O)(CC)C7)c(OC)cc5N(C)[C@@]14C)[C@@H]32)C(=O)OC	66.5%
